All figures here come from ChEMBL document CHEMBL1131340.

- TARGET SYSTEM: UniProtKB O70536
- Sequence (O70536 whole entry): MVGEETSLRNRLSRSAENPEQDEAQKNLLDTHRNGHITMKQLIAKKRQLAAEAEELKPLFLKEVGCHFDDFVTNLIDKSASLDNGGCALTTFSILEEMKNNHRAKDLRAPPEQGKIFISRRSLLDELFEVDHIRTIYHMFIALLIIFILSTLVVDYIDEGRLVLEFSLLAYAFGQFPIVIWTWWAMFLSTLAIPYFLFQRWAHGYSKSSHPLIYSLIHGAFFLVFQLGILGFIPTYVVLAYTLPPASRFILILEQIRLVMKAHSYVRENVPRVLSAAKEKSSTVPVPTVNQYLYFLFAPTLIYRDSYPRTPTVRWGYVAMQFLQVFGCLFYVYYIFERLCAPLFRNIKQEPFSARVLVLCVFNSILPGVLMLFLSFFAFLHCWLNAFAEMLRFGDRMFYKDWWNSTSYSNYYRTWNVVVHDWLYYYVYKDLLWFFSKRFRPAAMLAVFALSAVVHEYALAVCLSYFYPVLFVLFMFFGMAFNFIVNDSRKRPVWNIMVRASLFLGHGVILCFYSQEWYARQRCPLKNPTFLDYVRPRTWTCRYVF
- PROCEDURE SUMMARY: In vitro Acyl coenzyme A:cholesterol acyltransferase inhibition in hepatic microsomes isolated from cholesterol-fed rats
- Parameters: species or system Liver
ENDPOINT NAME: pIC50
// field semantics: pIC50 = negative decimal log of concentration (mol/L)

Some solved cases for reference:
INSERT INTO assay_data (compound, readout_value) VALUES
  ('CCCCCCCCCCCCOC(=O)C(F)C(=O)Nc1c(C(C)C)cccc1C(C)C (stereo unspecified)', 7.49),
  ('CCCCCCCCCCCCOC(=O)C(C(=O)Nc1c(C(C)C)cc(C(C)C)cc1C(C)C)c1ccccn1 (stereo unspecified)', 6.74);

Now look at this entry.
Qu. Entry CCCCCCCOC(=O)C(C(=O)Nc1c(C(C)C)cccc1C(C)C)c1ccccc1 (stereo unspecified) has what pIC50?
Ans. 7.30
